Tested on: CCRF-CEM leukemia
Test: NCI tumour cell line growth inhibition, 48 h
# maps each entry to its GI50
measured-attribute: GI50

O=C1NC(=NCc2ccccn2)S/C1=C\c1ccc2ncccc2c1 | 10700 nM
CC1=C(C(=O)Nc2ccc(F)c(Cl)c2)C(c2cccc(Cl)c2)NC(=O)N1 (centres undefined) | 21200 nM
COC(=O)c1oc2c(C(=O)/C=C/c3ccc(OC)cc3)c(OCCCN3CCCCC3)ccc2c1C | 783 nM
Fc1ccc(Nc2nc(Nc3ccc(-c4nc5ccccc5[nH]4)cc3)nc(N3CCCC3)n2)cc1 | 2980 nM
COC(=O)c1ccc2c(c1)nc(-c1ccc(Cl)cc1)n2-c1cc(C(C)(C)C)[nH]n1 | 4910 nM
COC(=O)c1c(-c2ccccc2)csc1NC(=O)c1c(-c2ccccc2)noc1C | 1770 nM
O=[N+]([O-])c1ccc2[nH]cc(-c3c4ccccc4cc4[nH]c5ccc([N+](=O)[O-])cc5c34)c2c1 | 2380 nM
Oc1ccc2ccccc2c1/C=N\Nc1ccccn1 | 328 nM
Cc1ccccc1NC(=O)NC(CC(N)=O)c1ccc2c(c1)nc(-c1cccc(Oc3ccc(C(C)(C)C)cc3)c1)n2CCCN1CCCCC1C (centres undefined) | 3030 nM

====

System: SF-539 CNS
Test: NCI tumour cell line growth inhibition, 48 h
Where a SMILES comes first, the peptide text is derived from it. The star is where a group is joined. Boc = CC(C)(C)OC(=O)*; OBn = c1ccc(CO*)cc1; Bn = c1ccc(C*)cc1
measured-attribute: TGI (µM)

CC1=C(C(=O)Nc2ccc(F)c(Cl)c2)C(c2cccc(Cl)c2)NC(=O)N1 (centres undefined) | 37.2
COc1ccc(C2CC(c3cc(OC)c(OC)c(OC)c3)=NN2)cc1 (centres undefined) | 36.6
O=C(NC(=S)NS(=O)(=O)c1ccc(N2N=C3c4ccccc4CC3C2c2cccs2)cc1)c1ccccc1 (centres undefined) | 84.6
CC(C)CC(NC(=O)C(Cc1ccccc1)NC(=O)C(COCc1ccccc1)NC(=O)OC(C)(C)C)C(=O)OCc1ccccc1 (stereo not drawn) (Boc-Ser(Bn)-Phe-Leu-OBn; configuration not given here) | 72.3

====

Tested on: NCI/ADR-RES ovarian
Assay: NCI tumour cell line growth inhibition, 48 h
Label 1.0 when TGI >= 20 µM; otherwise 0.0.

CC1=C(C)C(=O)C(C(C)C2=C(C)C(=O)C(C)=C(C)C2=O)=C(C)C1=O | 1.0
COC(=O)c1nc2c(C)c(O)c(O)c([C@H](C)CCC=C(C)C)c2o1 | 1.0
O=c1c(-c2ccccc2)c[nH]c2cc([N+](=O)[O-])c(/C(Cl)=C/c3ccccc3)cc12 | 1.0
C(=N\NC1=NCCCN1)/c1ccc(-c2cn3cc(/C=N/NC4=NCCCN4)ccc3n2)cc1 | 1.0
Cn1c2ccccc2c2c3c(c4c5ccccc5n(CCCCCC#N)c4c21)C(=O)N(O)C3=O | 1.0
CC1(C)COC(c2cccc(C3=NC(C)(C)CO3)c2)=N1 | 1.0
O=C1c2cccnc2-c2nc(-c3ccc([N+](=O)[O-])cc3)cc3c2c1nc1ccccc13 | 0.0
Cc1[nH]n(C(=O)c2ccccc2O)c(=O)c1/C=C1\C(=O)C=Cc2ccccc21 | 0.0
CC(=O)OCC1OC(n2c(-c3ccccc3)c(N=Nc3ccc(Cl)cc3)c(C)c(C#N)c2=S)C(OC(C)=O)C(OC(C)=O)C1OC(C)=O (centres undefined) | 1.0

====

Test system: OVCAR-8 ovarian
Assay: NCI tumour cell line growth inhibition, 48 h
# maps each entry to its TGI
measured-attribute: TGI (µM)

CC(C)C[C@H](NC(=O)[C@@H](Cc1cccc2ccccc12)NC(=O)N1CCOCC1)B(O)O | 44.9
O=C(O)/C(Cl)=C(/Cl)C(=O)Nc1cccc(Cl)c1 | 38.9
COC(=O)c1ccc(/C=C/C2=CC(=O)C=CC2=O)cc1 | 61.5
COc1ccc2c(CNCCCCO)cc3cc4c(cc3c2c1)OCO4 | 6.68
COc1ccc2c(c1)CCC(CN1CCN(CCOC(c3ccc(F)cc3)c3ccc(F)cc3)CC1)=C2 | 63.2
CC(C)(C)NNc1c([N+](=O)[O-])cnn(-c2ccccc2)c1=O | 4.74
CCOc1ccc2c(c1)/C(=C\C=C\C1CC(C)C3CC(OCC)CCC3N1CC)CC(C)N2CC (centres undefined) | 2.19
COC(=O)c1c(C)nc(C)c(N=O)c1-c1ccccc1C(F)(F)F | 35.6
O=C1c2cccnc2-c2nc(-c3ccc([N+](=O)[O-])cc3)cc3c2c1nc1ccccc13 | 6.76

====

// NCI-H460 lung GI50 records
measured-attribute: GI50

CNCCNc1nc2ccccc2c2c(=O)c3cccc(OC)c3sc12 | 1230 nM
COc1ccc(C2CC(c3cc(OC)c(OC)c(OC)c3)=NN2)cc1 (stereo not drawn) | 3470 nM
O=C(CCN1CCCC1)Nc1ccc2c(NCCCCc3ccccc3)c3ccccc3nc2c1 | 530 nM

====

Tested on: DMS 114 small cell lung
Assay: NCI tumour cell line growth inhibition, 48 h
# maps each entry to its TGI
measured-attribute: TGI

CC(=O)OC(C)(C)C1CCC(C)(C(O)COc2ccc(CCNC(=O)c3ccccc3)cc2)O1 (centres undefined) | 62.2 µM
CCOC(=O)[C@H]1Nc2ccc(O)cc2C2c3ccccc3CC21 (some centres undefined) | > 100 µM
C[Si](C)(C)/C(Br)=C\CCN1C(=O)CCC1O (centres undefined) | > 100 µM
CCOc1ccc(NC(=O)C2=C(C)NC(C)=C(C(=O)Nc3ccc(OCC)cc3)C2c2ccc([N+](=O)[O-])cc2)cc1 | > 100 µM
Cc1cccc(C)c1NC(=O)C(=O)C1C(=O)N(c2ccccc2)N=C1N (centres undefined) | > 100 µM
COc1nc2c(nc(N)n2C2OC(CO)C(O)C(O)C2O)c(=O)n1C (centres undefined) | > 100 µM
Cc1cc(Cl)ccc1NC(=O)C1C(=O)N(c2ccc(Cl)cc2C)C(=O)/C1=N\N (centres undefined) | > 100 µM
O=C1C(c2ccccc2)=C(c2ccccc2)C(c2ccccc2)/C1=C1\C(=O)C(c2ccccc2)=C(c2ccccc2)C1c1ccccc1 (centres undefined) | > 100 µM
Cc1c2cc[n+](C)cc2c(C)c2c1[nH]c1ccc(O)cc12 | 69.6 µM

====

Tested on: SK-MEL-5 melanoma
Assay: NCI tumour cell line growth inhibition, 48 h; in the data active = GI50 below about 0.43 µM; inactive = the rest
Classes used: YES = active, NO = inactive

CSC(=S)N/N=C(\C)c1ccccn1 | YES
Oc1ccc2ccccc2c1/C=N\Nc1ccccn1 | NO
COc1ccccc1Nc1nc(-c2cc3cccc(C(F)(F)F)c3oc2=O)cs1 | YES
CC(C)(C)CC(C)(C)Cc1ccc(OCCOCC[N+](C)(C)Cc2ccccc2)cc1 | NO
O=Cc1ccc(C(F)(F)F)cc1.[C-]#[O+].[C-]#[O+].[C-]#[O+].[Cr] | NO
Cc1ccc(/C=C(\C#N)n2nnc3cc(F)c(F)cc32)cc1 | NO

====

# maps each entry to its TGI
Test system: LXFL 529 NSCLC
Test: NCI tumour cell line growth inhibition, 48 h
measured-attribute: TGI

Cc1ccccc1NC(=O)c1[nH]c(=S)nc(N)c1-c1ccccc1C | > 100 µM
O=Cc1cc(O)c(O)c(O)c1-c1c(C=O)cc(O)c(O)c1O | > 100 µM
O=C1C(c2ccccc2)=C(c2ccccc2)C(c2ccccc2)/C1=C1\C(=O)C(c2ccccc2)=C(c2ccccc2)C1c1ccccc1 (stereo not drawn) | > 100 µM
COC(=O)C1Cc2c([nH]c3ccccc23)C=N1 (stereo not drawn) | > 100 µM
CC(C)(C)c1ccccc1NS(=O)(=O)c1ccccc1 | > 100 µM
CCCCOC(=O)N[C@H]1CCc2cc(OC)c(OC)c(OC)c2-c2ccc(SC)c(=O)cc21 | 29.5 µM
CC(C)(C)c1cc(C(O)(C(F)(F)F)C(F)(F)F)c2c(c1)C(C(F)(F)F)(C(F)(F)F)OC(c1ccccc1)(C(C)(C)C)N2 (stereo not drawn) | 12.5 µM
Cc1ccc(S(=O)(=O)N2CCCCC2CCO)cc1 (stereo not drawn) | > 100 µM
Cc1cccc(C)c1NC(=O)C(=O)C1C(=O)N(c2ccccc2)N=C1N (stereo not drawn) | > 100 µM
C/C=C/C1(NS(=O)(=O)c2ccc(C)cc2)CCC(C(C)(C)C)CC1 (stereo not drawn) | > 100 µM
O=C(OCCOCCOC(=O)c1c[nH]cc1-c1ccccc1)c1c[nH]cc1-c1ccccc1 | 69.2 µM
C=C1C(=O)OC2C(C)C3C=CC(=O)[C@@]3(C)C(OC(=O)/C(C)=C/C)C1[C@@H]2OC(C)=O (stereo partly drawn) | 1.16 µM
O=C(CC1C(=O)Nc2ccccc2S1=O)Nc1cccc(Cl)c1 (stereo not drawn) | > 100 µM

====

# maps each entry to its TGI
Test system: HOP-92 NSCLC
Test: NCI tumour cell line growth inhibition, 48 h
measured-attribute: TGI (µM)

Cc1ccc(/C=C(\C#N)n2nnc3cc(F)c(F)cc32)cc1 | 8.32
CNCCNc1nc2ccccc2c2c(=O)c3cccc(OC)c3sc12 | 3.77
CCOc1ccc(NC(=O)C2=C(C)NC(C)=C(C(=O)Nc3ccc(OCC)cc3)C2c2ccc([N+](=O)[O-])cc2)cc1 | 58.6
NS(=O)(=O)c1ccc(CNC(=S)NC(=O)Nc2ccc(Cl)c(Cl)c2)cc1 | 52.9
CC1=C(C)C(=O)C(C(C)C2=C(C)C(=O)C(C)=C(C)C2=O)=C(C)C1=O | 39.7
COC(=O)c1c(C)nc(C)c(N=O)c1-c1ccccc1C(F)(F)F | 34.8
O=C(CC1C(=O)Nc2ccccc2S1=O)Nc1cccc(Cl)c1 (configuration not stated) | 53.8
CCC(=O)O[C@@H]1C2C(OC(C)=O)C34COC(C)([C@@H]3C3C(C[C@]3(C)OC(C)=O)[C@@H](OC(=O)c3ccccc3)C4=O)[C@H](OC(C)=O)[C@@]2(OC(C)=O)C[C@@H]1C (some centres not stated) | 40.8
CN1CCN(c2ccc3nc(-c4ccc(OCCCN5C(=O)c6cccc7cccc(c67)C5=O)cc4)[nH]c3c2)CC1 | 3.29
